Test: Inhibition of his6-tagged L1 (unknown origin) expressed in Escherichia coli BL21-DE3 incubated for 16 hrs
Design: species or system Enzyme inhibition
Settings: read-out: IC50
Exam item: assign Condition met to entries whose IC50 is below 10 µM and Condition not met to entries at or above 10 µM. Note that a value of exactly 10 µM receives Condition not met.

Some solved entries appear below for comparison.
compound=O=C(O)[C@@H]1CS[C@H]2CS[C@H](CS)N21 qualitative_label="Condition not met"
compound=O=C(Nc1ccccc1)[C@@H]1CS[C@H]2CS[C@H](CS)N21 qualitative_label="Condition not met"
compound=Nc1ccccc1NC(=O)[C@@H]1CS[C@H]2CS[C@H](CS)N21 qualitative_label="Condition not met"
compound="SC[C@H]1SC[C@@H]2SCCN21 (racemic)" qualitative_label="Condition met"

Exercise: Please let me know if SC[C@H]1SC[C@@H]2Sc3ccccc3N21 (racemic) shows IC50 below 10 µM.
Key: Condition met

Exercise: Please let me know if COc1ccc(CNC(=O)[C@@H]2CS[C@H]3CS[C@H](CS)N32)cc1 shows IC50 below 10 µM.
Key: Condition not met

Exercise: Please let me know if CCOC(=O)[C@@H]1CS[C@H]2CS[C@H](CS)N21 shows IC50 below 10 µM.
Key: Condition met

Exercise: Please let me know if O=C(NCc1ccccc1)[C@@H]1CS[C@H]2CS[C@H](CS)N21 shows IC50 below 10 µM.
Key: Condition met

Exercise: Please let me know if CC(C)(C)OC(=O)NCCOC(=O)[C@@H]1CS[C@H]2CS[C@H](CS)N21 shows IC50 below 10 µM.
Key: Condition met

Exercise: Please let me know if SCC[C@H]1SC[C@@H]2SCCN21 (racemic) shows IC50 below 10 µM.
Key: Condition met

###

Reported IC50 is given for each of the following compounds.
Target: Metallo-beta-lactamase type 2 (Bacteria)
Sequence (C7C422 whole entry): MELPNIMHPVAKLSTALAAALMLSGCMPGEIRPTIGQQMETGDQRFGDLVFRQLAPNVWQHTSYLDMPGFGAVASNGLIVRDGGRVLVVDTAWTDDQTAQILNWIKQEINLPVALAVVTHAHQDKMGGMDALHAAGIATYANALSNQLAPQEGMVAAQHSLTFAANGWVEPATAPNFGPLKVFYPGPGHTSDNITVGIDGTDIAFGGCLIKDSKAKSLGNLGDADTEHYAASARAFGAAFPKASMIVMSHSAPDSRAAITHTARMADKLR
Experiment: Inhibition of his6-tagged NDM-1 (unknown origin) expressed in Escherichia coli BL21-DE3 incubated for 16 hrs
The reply should be a number in µM, with the unit left off.

// IC50 lookup, compound = O=C(NCc1ccccc1)[C@@H]1CS[C@H]2CS[C@H](CS)N21 , result: 7.7

// IC50 lookup, compound = SC[C@H]1SC[C@@H]2Sc3ccccc3N21 (racemic) , result: 0.29

// IC50 lookup, compound = CC(C)(C)OC(=O)NCCOC(=O)[C@@H]1CS[C@H]2CS[C@H](CS)N21 , result: 7.9

// IC50 lookup, compound = O=C(O)[C@@H]1CS[C@H]2CS[C@H](CCS)N21 , result: 3.1

// IC50 lookup, compound = COc1ccc(CNC(=O)[C@@H]2CS[C@H]3CS[C@H](CS)N32)cc1 , result: 52

// IC50 lookup, compound = SC[C@H]1SC[C@@H]2SCCN21 (racemic) , result: 1.2

// IC50 lookup, compound = NCCOC(=O)[C@@H]1CS[C@H]2CS[C@H](CS)N21 , result: 53

// IC50 lookup, compound = SCC[C@H]1SC[C@@H]2SCCN21 (racemic) , result: 8.3

// IC50 lookup, compound = O=C(O)[C@@H]1CS[C@H]2CS[C@H](CS)N21 , result: 13

// IC50 lookup, compound = O=C(Nc1ccccc1)[C@@H]1CS[C@H]2CS[C@H](CS)N21 , result: 20

// IC50 lookup, compound = Nc1nc(COC(=O)[C@@H]2CS[C@H]3CS[C@H](CS)N32)cs1 , result: 27

// IC50 lookup, compound = CCOC(=O)[C@]12CS[C@H](CS)N1[C@H](C(=O)O)CS2 , result: 13

// IC50 lookup, compound = Nc1ccccc1NC(=O)[C@@H]1CS[C@H]2CS[C@H](CS)N21 , result: 29

// IC50 lookup, compound = CCOC(=O)[C@@H]1CS[C@H]2CS[C@H](CS)N21 , result: 2.7
